pIC50: −log10 of the molar value.
Note to self: these molecules have pIC50 reported for Poly [ADP-ribose] polymerase tankyrase-2 (Homo sapiens) in various publications.

CN1c2ccccc2C(=O)NC1c1c[nH]nc1-c1ccc(-c2ccccc2)cc1 (stereo not shown) | > 8.30
CN1c2ccccc2C(=O)NC1c1c[nH]nc1-c1ccc(C(=O)O)cc1 (stereo not shown) | > 8.30

Record COC(=O)NCCOC(C)(C)c1ccc(-c2nc3c(c(=O)[nH]2)CSCC3)cc1O : what is its pIC50 with Poly [ADP-ribose] polymerase tankyrase-2 (Homo sapiens)?
7.92

// next record COCCNC(=O)c1nc[nH]c1C(=O)N[C@H]1CC[C@]2(CCN(c3ccc(F)cc3Cl)C2=O)CC1
< 5.00

// query: COc1ccc(-c2[nH]ncc2C2NC(=O)c3cccc(C)c3N2)cc1 (stereo not shown)
7.70 to 8.30

Same thing, different molecule: CN1c2ccccc2C(=O)NC1c1c[nH]nc1-c1cccc(-c2ccc(N3CCOCC3)cc2)c1 (stereo not shown)
7.70 to 8.30

Entry to check: COc1ccc(-c2n[nH]cc2C2NC(=O)c3ccccc3N2C)cc1 (stereo not shown)
7.70 to 8.30

----------
Field IC50: reported value for Poly [ADP-ribose] polymerase tankyrase-2 (Homo sapiens); entries drawn from several documents.
endpoint: IC50 (nM)

// known answers, use as guide
N#Cc1cc(B(O)O)ccc1-c1nc2c(c(=O)[nH]1)CSCC2 | 16
CC(=O)N1CCC(C2Cc3[nH]c(=O)c4ccccc4c3CO2)CC1 (racemic) | 27
O=C(NCC1CCCO1)c1nc[nH]c1C(=O)N[C@H]1CC[C@H](C(=O)Nc2cc(C(F)(F)F)ccc2Cl)CC1 (stereo partly drawn) | 100
CC(C)NC(=O)c1nc[nH]c1C(=O)N[C@H]1CC[C@@]2(CCCN(c3cc(F)c(F)cc3Cl)C2=O)CC1 | 52
O=C(NCCN1CC2(CCO2)C1)c1nc[nH]c1C(=O)N[C@H]1CC[C@H](C(=O)Nc2ccc(F)cc2Cl)CC1 | 11
O=C(N[C@H]1CC[C@@]2(CCN(c3ccc(F)cc3Cl)C2=O)CC1)c1[nH]cnc1C(=O)N1CC(F)C1 | 2.6

I = CC1CCN(CCNC(=O)c2nc[nH]c2C(=O)N[C@H]2CC[C@@]3(CCN(c4ccc(F)cc4Cl)C3=O)CC2)CC1
II = O=C(N[C@H]1CC[C@@]2(CCN(c3ccc(F)cc3Cl)C2=O)CC1)c1[nH]cnc1C(=O)N1CC(OC(F)F)C1
Given the two records I and II , choose the one whose IC50 value is lower. Reply with the label of the item you choose.
I
(I: 3.4 nM, II: 5 nM)

----------
// compounds with IC50 on Poly [ADP-ribose] polymerase tankyrase-2 (Homo sapiens, UniProt Q9H2K2), multi-source literature
endpoint: IC50 (nM)

Below, 10 compounds whose answers are already recorded.
COC[C@@H](C)NC(=O)c1nc[nH]c1C(=O)N[C@H]1CC[C@H](C(=O)Nc2ccc(F)cc2Cl)CC1 | 230
Cn1ncc2c(=O)[nH]c(N3CCN(c4ncccc4C(F)(F)F)CC3)cc21 | 30.4
Cn1ccc2c(=O)[nH]c(N3CCN(c4ccc(F)cc4)CC3)nc21 | 32
COCC(C)NC(=O)c1nc[nH]c1C(=O)N[C@H]1CC[C@H](C(=O)Nc2cnccc2Cl)CC1 (some centres unmarked) | 110
COC(C)CNC(=O)c1nc[nH]c1C(=O)N[C@H]1CC[C@H](C(=O)Nc2ccc(F)cc2Cl)CC1 (some centres unmarked) | 72
O=C(N[C@H]1CC[C@@]2(CCN(c3ccccc3Cl)C2=O)CC1)c1c[nH]c2cccnc12 | 71
CNC(=O)c1[nH]cnc1C(=O)N[C@H]1CC[C@@]2(CCN(c3ccc(F)cc3Cl)C2=O)CC1 | 6.9
CCNC(=O)c1[nH]cnc1C(=O)N[C@H]1CC[C@@]2(CCN(c3ccc(F)cc3Cl)C2=O)CC1 | 6.5
COC(C)(C)CNC(=O)c1nc[nH]c1C(=O)N[C@H]1CC[C@H](C(=O)Nc2cc(C)c(F)cc2Cl)CC1 | 100
O=C(N[C@H]1CC[C@@]2(CCN(c3cccc(Cl)c3)C2=O)CC1)c1[nH]cnc1C(=O)N1CCOCC1 | 4400

P = O=C(N[C@H]1CC[C@H](C(=O)Nc2ccc(F)cc2Cl)CC1)c1cnn2ccc(N3CCOCC3)nc12
Q = O=c1[nH]c(-c2ccc(B(O)O)c(O)c2)nc2c1CSCC2
R = Cc1cc(N2CC[C@]3(CC[C@@H](NC(=O)c4cnn5cccnc45)CC3)C2=O)c(Cl)cc1F
S = C[C@H](c1ccccc1)N(Cc1nc2c(c(=O)[nH]1)COCC2)S(=O)(=O)Cc1ccccc1
T = CN1CCN(c2ccc3ncc(C(=O)N[C@H]4CC[C@H](C(=O)Nc5ccc(F)cc5Cl)CC4)n3n2)CC1
I would appreciate it if you could sort these 5 compounds by IC50, starting from the smallest number. Kindly provide the labels arranged according to the requested ordering.
R, Q, P, T, S

I = O=C(N[C@H]1CC[C@H](C(=O)Nc2ccc(F)cc2Cl)CC1)c1[nH]cnc1C(=O)N1CC2(COC2)C1
II = O=C(NCCN1CCOCC1)c1nc[nH]c1C(=O)N[C@H]1CC[C@@]2(CCN(c3cccc(Cl)c3)C2=O)CC1
For this pair, I and II , which shows a numerically higher IC50? Answer = label.
I
(I: 37 nM, II: 21 nM)

----------
// compounds with reported IC50 on UniProtKB Q9H2K2, multi-publication
endpoint: IC50 (µM)

Cn1ccc2c(=O)[nH]c(N3CCN(c4cnccn4)CC3)nc21 | 0.133
Cc1cc(C)n2ncc(C(=O)NC34CCC(C(=O)Nc5cc(C)c(F)cc5Cl)(CC3)CC4)c2n1 | 0.065

1 = O=c1[nH]c(-c2ccc3c(c2)COB3O)nc2c1CSCC2
2 = Cc1cc(F)cc(Cl)c1NC(=O)[C@H]1CC[C@H](NC(=O)c2cnn3cccnc23)CC1
// compare measured IC50 between 1 and 2 ; output the lower one Your choice should be expressed through its label.
1

P = Cn1ccc2c(=O)[nH]c(N3CCN(c4ncccc4C(F)(F)F)CC3)nc21
Q = Cn1ccc2c(=O)[nH]c(N3CCN(c4ccccc4F)CC3)nc21
R = Cc1cc(C)n2ncc(C(=O)NC34CCC(C(=O)Nc5c(F)cc(F)cc5Cl)(CC3)CC4)c2n1
S = Cc1cc(N2CC[C@]3(CC[C@@H](NC(=O)c4[nH]cnc4C(=O)NCCN4CCC(C)CC4)CC3)C2=O)c(Cl)cc1F
T = O=c1[nH]c(-c2ccc(B(O)O)cc2Cl)nc2c1CSCC2
Sort the compounds on IC50; start with the lowest figure. Thanks in advance for listing the labels in the requested order.
S, P, Q, R, T

----------
Assay read-out IC50 on UniProt Q9H2K2; records merged from the literature.
endpoint: IC50 (µM)

CCOC(=O)c1cnc2c(C(=O)N[C@H]3CC[C@H](C(=O)Nc4ccc(F)cc4Cl)CC3)cnn2c1 | 0.015
O=C(N[C@H]1CC[C@H](C(=O)Nc2ccncc2Cl)CC1)c1cnc2cccnn12 | 0.29
CC1(C(=O)N2CCC(C3Cc4[nH]c(=O)c5ccccc5c4CO3)CC2)CC1 (racemic) | 0.0443

I = O=C(N[C@H]1CC[C@@]2(CCCN(c3ccc(F)cc3Cl)C2=O)CC1)c1cnc2cccnn12
II = Cn1ccc2c(=O)[nH]c(N3CCOCC3)nc21
III = CC(C)(C)OC(=O)N1CCC([C@@H]2Cc3[nH]c(=O)c4ccccc4c3CO2)CC1 (single isomer, unassigned)
# rank_down: sort by IC50, max first Labels, ranked as asked.
II, I, III

----------
Literature IC50 values, system: Poly [ADP-ribose] polymerase tankyrase-2 (Homo sapiens, UniProt Q9H2K2).
endpoint: IC50 (nM)

A selection of reference data follows.
COCc1cc(C)nc2c(C(=O)N[C@H]3CC[C@@]4(CCN(c5ccc(F)cc5Cl)C4=O)CC3)cnn12 | 7.5
O=C(N[C@H]1CC[C@H](C(=O)Nc2ccc(F)cc2Cl)CC1)c1[nH]cnc1C(=O)N1CC(F)(F)C1 | 26
Cn1ccc2c(=O)[nH]c(-c3ccccc3)nc21 | 154

a = Cc1cc(C)n2ncc(C(=O)N[C@H]3CC[C@H](C(=O)Nc4c(F)cc(F)cc4Cl)CC3)c2n1
b = COC(C)CNC(=O)c1nc[nH]c1C(=O)N[C@H]1CC[C@H](C(=O)Nc2c(F)cc(F)cc2Cl)CC1 (stereo partly shown)
Among a and b , which shows a numerically higher IC50 result? Provide the label of your selected option as the answer.
b
(b: 79 nM, a: 29 nM)

I = O=C(CCc1ccccc1F)N(Cc1ccc[nH]1)Cc1nc2c(c(=O)[nH]1)COCC2
II = Cc1cc(N2CC[C@]3(CC[C@@H](NC(=O)c4[nH]cnc4C(=O)NCC(F)(F)F)CC3)C2=O)c(Cl)cc1F
III = CC(C)(COCc1ccccc1)C1Cc2[nH]c(=O)c3ccccc3c2CO1 (racemic)
Order the entries by their reported IC50, beginning at the minimum. Form entry: ranked labels (order as requested).
II, III, I
(II: 7.6 nM, III: 113 nM, I: 235 nM)

a = Cc1cc(N2CCC[C@]3(CC[C@@H](NC(=O)c4[nH]cnc4C(=O)NC(C)C)CC3)C2=O)c(Cl)cc1F
b = O=C(NC1CC1)c1nc[nH]c1C(=O)N[C@H]1CC[C@@]2(CCN(c3ccc(F)cc3Cl)C2=O)CC1
Field: lower recorded IC50 (choose a or b ) Respond using the label that marks the chosen record.
b
